Assay metric: melting point

Note to self: melting point recorded for O=C(CCCCCl)c1cccc2c1OCCO2 was 32 to 38 °C

Note to self: melting point recorded for CCN1c2ncc(CCc3ccccc3)cc2C(=O)N(C)c2c1ncc(C)c2C was 187 to 188 °C

---

Assay metric: melting point (°C)

CC(C)=CCN1Cc2c(Br)ccc3[nH]c(=O)n(c23)CC1C (single isomer, unassigned; (+)) : 125
CN1CCN(c2c(F)c(NCc3ccccc3)c3c(c2F)n2c(=O)n(OCc4ccccc4)c(=O)cc2n3C2CC2)CC1 : 214
CC(C)NC(=S)n1ccc2cc(Cl)ccc21 : 135
O=C1c2ccccc2C(=O)N1OS(=O)(=O)c1ccccc1 : 186

I: CCn1c(=O)c2[nH]c(/C=C/c3cc(C)ccc3C)nc2n(CC)c1=O
II: CCOC(=O)C1(c2cccc(Cl)c2C)CCN(S(=O)(=O)c2ccc(C)cc2)CC1
Which value of melting point is numerically greater: that of I or that of II ? The response must carry the label of the picked entry.
I

---

Assay metric: melting point

Please review the following examples before continuing.
Nc1cccc2c1ccn2-c1ccnc(N[C@H]2CC[C@H](O)CC2)n1 : 219 to 220 °C
O=C1c2cccc3c(N4CCCC4)c([N+](=O)[O-])cc(c23)C(=O)N1O : 249 to 252 °C
Cc1cccc2cc3c(=O)n(C)cc(C(=O)N[C@@H](C)C(=O)N(C)C)c3nc12 : 268 to 274 °C
COc1cc2c(c3c1OC(C)(C)C3)C(c1ccccc1)=NC(CN1C(=O)c3ccccc3C1=O)C2 (stereo not drawn) : 228 to 229 °C
O=C(NC(CS)Cc1ccccc1)N1CCSCC1 (single isomer, unassigned; (+)) : 98 to 100 °C
ClCc1coc(-c2ccc3oc(-c4ccccc4)nc3c2)n1 : 194 to 195 °C

Note to self: melting point recorded for NCc1ccc2c(c1)ncn2-c1cccc(-c2ccc(F)nc2)c1 was 141 to 143 °C

Note to self: melting point recorded for CN(C(=O)CNc1cc(-c2ccccc2)nc(-c2ccc(C(F)(F)F)cc2)n1)C1CC1 was 179 to 180 °C

Note to self: melting point recorded for Cc1cnc2c(N)ccc(C)c2c1Cl was 120 to 122 °C

Note to self: melting point recorded for COC(=O)COc1ccc(C=O)cc1 was 39 to 41 °C

Note to self: melting point recorded for O=C1NC(C2CCCCC2)C1O (stereo not drawn) was 140 °C

Note to self: melting point recorded for O=C(O)CN(C(=O)Cc1ccc(Cl)c(Cl)c1)[C@H](CN1CC[C@H](O)C1)c1ccccc1 was 162 to 164 °C

Note to self: melting point recorded for CCN1CCc2ccc(Nc3ncc(Cl)c(NCCCC(=O)NC)n3)cc2CC1 was 135 °C

Note to self: melting point recorded for CCOc1cccc(-c2nc(=O)c3ccccc3s2)n1 was 180 °C

Note to self: melting point recorded for CCCCCCCCCCCCCCCCCC(=O)NCC(COCCCCCCCCCCCCCCCC)COCc1ccccc1 (stereo not drawn) was 56 to 57 °C

Note to self: melting point recorded for CCOc1c(Nc2ccc(C#N)cc2)c(=O)c1=O was 218 to 222 °C

Note to self: melting point recorded for COCO[C@@H](CCCCC1CCCCC1)CCc1ccc(C(C)(C)C)c(NC(=O)CC2c3ccccc3Oc3ccccc32)c1 was 71 to 73 °C

---

Examples of molecules with documented melting point follow.

Please review the following examples before continuing.
CCOC(=O)c1c(C)cc2nc(C(C)C)n(-c3ccccc3Cl)c(=O)c2c1C : 115 to 116 °C
COC1C(CO)OC(n2c3ccc(CO)cc3c3c4c(c5c6cc(CO)ccc6[nH]c5c32)C(=O)NC4=O)C(O)C1O (configuration not stated) : > 300 °C
O=c1[nH]nnn1-c1ccc(Cl)cc1F : 185 to 187 °C
CCOC(=O)C1CSCCN1C(=O)Nc1ccc(Cl)cc1F (configuration not stated) : 112 °C
CCNC(=O)C1OC(n2cnc3c(NCC(c4ccccc4)c4ccccc4)nc(NC4CCCC4)nc32)C(O)C1O (configuration not stated) : 122 to 128 °C
CCCCOc1cc(/C=C/S(=O)(=O)NC(=O)OC(C)(C)C)n(Cc2ccc(Cl)cc2Cl)n1 : 152 to 153 °C
Nc1nc(N)nc(-c2cccc(-n3cccc3)c2)n1 : 164 to 170 °C
O=C1CCC2=C1C(c1ccc(Br)cc1)C1=C(CCS1)N2 (configuration not stated) : 253 to 256 °C

Note to self: melting point recorded for CCCCOC(=O)NS(=O)(=O)c1ccccc1-c1ccc(Cn2c(CCC)nc(SC)c2C(=O)O)cc1 was 202 to 204 °C

Note to self: melting point recorded for COc1cccc(-c2ccc3c(c2)c(C(=O)C(=O)O)cn3Cc2ccc(C(C)(C)C)cc2)c1 was 86 to 87 °C

Note to self: melting point recorded for COCCNc1c([N+](=O)[O-])cc(C(F)(F)F)c(Cl)c1[N+](=O)[O-] was 106 to 108 °C

---

Examples of molecules with documented melting point follow.

CCCCCCN(C[C@H]1CCC[C@H](CN(CCCCCC)C(=O)Nc2ccc(N(C)C)cc2)C1)C(=O)Nc1ccc(N(C)C)cc1 (relative stereo) : 121 to 125 °C

Note to self: melting point recorded for CC(=O)Oc1cccc(C(=O)c2ccccc2)c1OC(C)=O was 81 to 83 °C

Note to self: melting point recorded for CCCCCCC1=C(Br)C(O)(CO)NC1=O (stereo not drawn) was 134 to 135 °C

---

Examples of compounds with documented melting point follow.

Note to self: melting point recorded for COC(=O)CSC(c1ccccc1OC)c1ccccc1OC was 65 to 67 °C

Note to self: melting point recorded for CC1(OC(=O)c2ccco2)C=CC(COC(=O)c2ccco2)=CN1 (stereo not given) was 118 to 119 °C

Note to self: melting point recorded for Cc1cc(C)n2nc(OC(=S)N(C)C)cc2n1 was 216 to 217 °C

Note to self: melting point recorded for Cc1[nH]cc2c(=O)n(-c3ccc(Cl)cc3)nc-2c1-c1cccc(-n2cnnc2)c1 was > 350 °C

Note to self: melting point recorded for CC(C)C(=O)CCC(C)C1CCC2C3C=CC4=CC(=O)C5OC5C4(C)C3CCC12C (stereo not given) was 150 to 152 °C

---

Examples of compounds with documented melting point follow.

O=C1c2ccccc2C(=O)c2c(NCCc3ccc(O)cc3)ccc(NCCc3ccc(O)cc3)c21 : 240 to 242 °C
O=C(Nc1ccccc1C(F)(F)F)c1ccc([N+](=O)[O-])cc1 : 126 °C
N#Cc1ncnc2[nH]ccc12 : 237 to 238 °C
CNc1ccc(Cl)cc1C(=N)c1ccccc1 : 93 to 95 °C
N#CCc1c(C(F)(F)F)cccc1C(F)(F)F : 84.5 to 86 °C

Note to self: melting point recorded for CC(=O)c1sccc1CN1C(=O)C(NC(=O)Nc2cccc(C)c2)N=C(c2ccccc2F)c2ccccc21 (racemic) was 222 to 223 °C

Note to self: melting point recorded for Nc1cccnc1CCCCNc1ncc(Cc2cccnc2)c(=O)[nH]1 was 130 to 132 °C

---

Assay metric: melting point

Please review the following examples before continuing.
Cc1ccc(NC(=O)N(C)N)cc1NC(=O)N(C)N : 164 to 165 °C
CCCCCCCCCCN(O)C(=O)NCCCCCCC(=O)OC : 81 to 82 °C

Note to self: melting point recorded for CC(C)N1CCN(c2ccc(OCC(O)CC(O)(Cn3cncn3)c3ccc(Cl)cc3Cl)cc2)CC1 (stereo not drawn) was 131 to 132 °C

---

Assay metric: melting point (°C)

Please review the following examples before continuing.
COc1cc2ccc(-c3ccc(C(C)C)cc3)cc2oc1=O : 127
COc1nccc2c1COC2=O : 90

a: CC(CC(C)C1CCC2C3C(=O)CC4CC(=O)CCC4(C)C3CCC12C)C(=O)O (stereo not given)
b: CNc1cccc2c1CCn1cc(-c3ccccc3)nc1C2OC1CCN(C)CC1 (stereo not given)
Could you check which of a and b has a smaller value for melting point? The response must carry the label of the picked entry.
a
(a: 119 °C, b: 189 °C)

---

Examples of molecules with documented melting point follow.

Please review the following examples before continuing.
CC(=O)NCc1ccc(CC(=NNc2ccc(Br)cn2)c2ccccc2)o1 : 176 °C
CC(=O)C1Cc2c(nc3ccccc3c2C)C(N2CCOCC2)CN1 (centres undefined) : 179 °C
COc1cccc2c1OC(COS(=O)(=O)c1ccc(C)cc1)C2 (centres undefined) : 98 to 103 °C
O=C(O)C1(CCCCCCCCCCCCC2(C(F)F)CC2)CC1 : 54 to 54.8 °C
CSC[C@H](C)NC(=O)c1c(I)cccc1C(=O)O : 132 to 134 °C

Note to self: melting point recorded for O=C(CN1C(=O)c2ccccc2S1(=O)=O)OCCO was 125 to 126 °C

Note to self: melting point recorded for CNc1nnc(-c2ccc3ncn(-c4cccc(OC(F)(F)F)c4)c3c2)o1 was 226 to 227 °C

Note to self: melting point recorded for NS(=O)(=O)c1ccn2c1C(=O)OCC2 was 204 to 206 °C

Note to self: melting point recorded for COc1cc(Cl)nc(Oc2cccc(Oc3nc(OC)cc(OC)n3)c2C(=O)O)n1 was 150 to 152 °C
